# System Under Test: Human GPR40 (Homo sapiens, UniProt O14842)
# Sequence (O14842 whole entry): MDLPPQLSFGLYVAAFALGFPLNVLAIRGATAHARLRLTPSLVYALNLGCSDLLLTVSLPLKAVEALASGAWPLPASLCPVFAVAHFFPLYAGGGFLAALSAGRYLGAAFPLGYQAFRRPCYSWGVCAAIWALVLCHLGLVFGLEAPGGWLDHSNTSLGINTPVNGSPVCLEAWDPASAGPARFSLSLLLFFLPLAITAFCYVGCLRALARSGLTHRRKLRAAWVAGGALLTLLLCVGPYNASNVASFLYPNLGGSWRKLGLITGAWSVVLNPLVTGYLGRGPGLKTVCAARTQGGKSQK
# Protocol Notes: Inositol Phosphate Turnover (IP1) Assay
# Assay type: cell-based
# Set-up: expressed in transfected cells; host or cells: HEK cells (stably expressing the aequorin reporter)
# Condition: HEK cells stably expressing human GPR40, CisBio IP-One kit
Measurement Label: pEC50
Lab note — pEC50 values are minus log10 of concentrations in M.

Example results:
Compound	pEC50
O=C(O)[C@H]1[C@@H]2Cc3cc(OCc4ccc5c(c4)C(c4ccccc4C(F)(F)F)CCO5)ncc3[C@@H]21 (stereo partly shown)	7.44
O=C(O)[C@H]1[C@@H]2Cc3cc(OCc4cc5c(cnn5-c5ccccc5C(F)(F)F)cc4F)ncc3[C@@H]21	8.15
CC1(C)CC(c2ccccc2C(F)(F)F)c2cc(COc3cc4c(cn3)[C@H]3[C@@H](C4)[C@@H]3C(=O)O)c(F)cc21 (single isomer, unassigned) [Example 22]	7.90
COc1ccc(F)c(N2CC(C)(C)c3cc(F)c(COc4cc5c(cn4)[C@H]4[C@@H](C5)[C@@H]4C(=O)O)cc32)c1	7.36
CC1(C)OC(c2ccccc2C(F)(F)F)c2cc(COc3cc4c(cn3)[C@H]3[C@@H](C4)[C@@H]3C(=O)O)c(F)cc21 (stereo partly shown)	8.70
C=C(C)CCOc1ccc(C2CCCc3ccc(COc4cc5c(cn4)[C@H]4[C@@H](C5)[C@@H]4C(=O)O)cc32)c(C)n1 (stereo partly shown)	6.67
O=C(O)[C@H]1[C@@H]2Cc3cc(OCc4ccc5c(c4)N(c4ccccc4)CC5)ncc3[C@@H]21	6.77
O=C(O)[C@H]1[C@@H]2Cc3cc(OCc4cc5c(cc4F)C(n4cccn4)CC5c4ccccc4C(F)(F)F)ncc3[C@@H]21 (single isomer, unassigned) [Example 57]	8.75

# compound O=C1CC(c2ccccc2C(F)(F)F)c2cc(COc3cc4c(cn3)[C@H]3[C@@H](C4)[C@@H]3C(=O)O)ccc21 (stereo partly shown) ; its pEC50 = 7.32

# compound CC1(C)NC(c2ccccc2C(F)(F)F)c2cc(COc3cc4c(cn3)[C@H]3[C@@H](C4)[C@@H]3C(=O)O)ccc21 (stereo partly shown) ; its pEC50 = 7.81
